Molecular target: T1, orthogonal hCD122 receptor (hoRb), hCD122 with H133D and Y134F (human, UniProt P14784 27-550); also: reference of the scale not given here
T1 sequence: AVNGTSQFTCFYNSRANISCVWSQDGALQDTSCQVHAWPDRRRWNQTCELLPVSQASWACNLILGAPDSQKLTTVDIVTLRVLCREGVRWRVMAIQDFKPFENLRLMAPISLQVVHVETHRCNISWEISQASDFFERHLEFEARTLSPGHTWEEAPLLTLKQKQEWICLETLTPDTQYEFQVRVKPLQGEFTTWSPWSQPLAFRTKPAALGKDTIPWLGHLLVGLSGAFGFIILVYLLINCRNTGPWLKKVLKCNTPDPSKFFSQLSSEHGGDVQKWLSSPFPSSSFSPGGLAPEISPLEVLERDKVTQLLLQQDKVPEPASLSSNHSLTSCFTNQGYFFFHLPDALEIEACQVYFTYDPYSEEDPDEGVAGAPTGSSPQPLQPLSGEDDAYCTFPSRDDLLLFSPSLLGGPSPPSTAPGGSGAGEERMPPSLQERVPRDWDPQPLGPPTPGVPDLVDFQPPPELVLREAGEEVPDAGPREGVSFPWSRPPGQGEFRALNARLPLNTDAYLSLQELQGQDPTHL
Assay: cell-based or functional assay
# Relative Proliferation Fold Change NKL 1:10 listing for each entry below
Lab book: enter the figure in fold, no units written.

Recall and state the measured Relative Proliferation Fold Change NKL 1:10 for SQVLRA (ligand) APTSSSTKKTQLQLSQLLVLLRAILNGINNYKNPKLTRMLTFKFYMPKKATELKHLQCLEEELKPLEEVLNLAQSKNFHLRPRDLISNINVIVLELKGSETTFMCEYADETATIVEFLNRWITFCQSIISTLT .
4.06

Recall and state the measured Relative Proliferation Fold Change NKL 1:10 for R81D, SQVLKA (ligand) APTSSSTKKTQLQLSQLLVLLKAILNGINNYKNPKLTRMLTFKFYMPKKATELKHLQCLEEELKPLEEVLNLAQSKNFHLDPRDLISNINVIVLELKGSETTFMCEYADETATIVEFLNRWITFCQSIISTLT .
4.35

Recall and state the measured Relative Proliferation Fold Change NKL 1:10 for SQVLKH (ligand) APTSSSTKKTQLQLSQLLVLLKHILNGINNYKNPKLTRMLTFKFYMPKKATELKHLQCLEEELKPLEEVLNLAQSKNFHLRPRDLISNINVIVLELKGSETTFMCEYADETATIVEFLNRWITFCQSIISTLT .
2.7

// next item, Relative Proliferation Fold Change NKL 1:10 requested
Recall and state the measured Relative Proliferation Fold Change NKL 1:10 for SQVLDA (ligand) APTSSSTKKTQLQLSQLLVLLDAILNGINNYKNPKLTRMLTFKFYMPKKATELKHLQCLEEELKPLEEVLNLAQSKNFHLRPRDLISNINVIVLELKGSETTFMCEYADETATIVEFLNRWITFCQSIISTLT .
1.65
